Molecular target: D(1A) dopamine receptor (Rattus norvegicus) (UniProt P18901)
Sequence (P18901 whole entry): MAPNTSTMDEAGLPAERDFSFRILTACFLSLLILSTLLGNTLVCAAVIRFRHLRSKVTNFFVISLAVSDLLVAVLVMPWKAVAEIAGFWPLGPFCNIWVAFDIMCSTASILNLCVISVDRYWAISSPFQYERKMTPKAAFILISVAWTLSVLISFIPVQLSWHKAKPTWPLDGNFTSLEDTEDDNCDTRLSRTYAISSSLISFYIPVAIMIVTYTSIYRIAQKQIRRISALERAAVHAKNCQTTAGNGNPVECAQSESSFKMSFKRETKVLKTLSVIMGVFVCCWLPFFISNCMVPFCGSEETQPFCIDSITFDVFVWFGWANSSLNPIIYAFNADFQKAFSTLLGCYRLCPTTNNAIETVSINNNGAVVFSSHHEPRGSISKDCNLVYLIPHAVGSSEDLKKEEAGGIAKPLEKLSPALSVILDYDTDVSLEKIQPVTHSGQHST
Experiment: Binding affinity for dopamine receptor D1 in rat striatal homogenate
We begin with a simple list: items and their reported K0.5.
Please respond with the number in nM and leave the unit unwritten.

// solved cases for K0.5 follow
> print(dat)
                              line.notation  measurement
1  Oc1ccc2c(c1)[C@@H]1c3cc(O)c(O)cc3CC[C@H]1NC2         18.8
2  Cc1ccc2c(c1)CN[C@@H]1CCc3cc(O)c(O)cc3[C@@H]21         5.06
3  Cc1ccc2c(c1)[C@@H]1c3cc(O)c(O)cc3CC[C@H]1NC2         8.66

Here is the next item to consider.
Query block: Entry Cc1cccc2c1CN[C@@H]1CCc3cc(O)c(O)cc3[C@@H]21 has what K0.5?
Result block: 6.58
